Recorded values, source ChEMBL document CHEMBL5055637.

Tested on: Mycobacterium tuberculosis
Assay: Antitubercular activity against wild type Mycobacterium tuberculosis HN878 assessed as bacterial growth inhibition measured after 5 days by serial dilution method
Type: functional
Details: HN878, 120 h, time 5 day
assay.metric: MIC90 (µM)
Write it as a number; the unit µM goes unstated.

>  <compound>
CO[C@H]1/C=C/O[C@@]2(C)Oc3c(C)c(O)c4c(O)c(c(CN5CCN(CCO)CC5)c(O)c4c3C2=O)NC(=O)/C(C)=C\C=C\[C@H](C)[C@H](O)[C@@H](C)[C@@H](O)[C@@H](C)[C@H](OC(C)=O)[C@@H]1C

>  <study.system>
Mycobacterium tuberculosis

>  <MIC90 / µM>
0.07

$$$$
>  <compound>
NNC(=O)c1ccncc1

>  <study.system>
Mycobacterium tuberculosis

>  <MIC90 / µM>
0.29

$$$$

Please find the next compound below.
Look at this compound and give its reported MIC90. "COC(=O)c1ccc(CNCc2c3c(O)c4c(O)c(C)c5c(c4c2O)C(=O)[C@@](C)(O/C=C/[C@H](OC)[C@@H](C)[C@@H](OC(C)=O)[C@H](C)[C@H](O)[C@H](C)[C@@H](O)[C@@H](C)/C=C/C=C(/C)C(=O)N3)O5)cc1" 0.53

====

The entries below come with measured MIC90 values attached.
System: Mycobacterium tuberculosis
Assay: Antitubercular activity against wild type Mycobacterium tuberculosis HN878 assessed as bacterial growth inhibition measured after 5 days by serial dilution method
Type: functional
Conditions: HN878, 120 h, time 5 day
Please respond with the number in µM and leave the unit unwritten.

>  <compound>
CO[C@H]1/C=C/O[C@@]2(C)Oc3c(C)c(O)c4c(O)c(c(CNCc5ccco5)c(O)c4c3C2=O)NC(=O)/C(C)=C\C=C\[C@H](C)[C@H](O)[C@@H](C)[C@@H](O)[C@@H](C)[C@H](OC(C)=O)[C@@H]1C

>  <MIC90, µM>
0.45

$$$$

Next up:
Find MIC90 (Mycobacterium tuberculosis) for the entry "CO[C@H]1/C=C/O[C@@]2(C)Oc3c(C)c(O)c4c(O)c(c(CNCCc5ccc(O)cc5)c(O)c4c3C2=O)NC(=O)/C(C)=C\C=C\[C@H](C)[C@H](O)[C@@H](C)[C@@H](O)[C@@H](C)[C@H](OC(C)=O)[C@@H]1C" 0.22

====

Recorded MIC90 values for a group of compounds are listed next.
Test system: Mycobacterium tuberculosis
Assay: Antitubercular activity against wild type Mycobacterium tuberculosis HN878 assessed as bacterial growth inhibition measured after 5 days by serial dilution method
Assay type: functional
Conditions: HN878, 120 h, time 5 day
Only the number, expressed in µM, is required.

As a guide, the following entries are already answered.
>  <compound>
CO[C@H]1/C=C/O[C@@]2(C)Oc3c(C)c(O)c4c(O)c(c(/C=N/N5CCN(C)CC5)c(O)c4c3C2=O)NC(=O)/C(C)=C\C=C\[C@H](C)[C@H](O)[C@@H](C)[C@@H](O)[C@@H](C)[C@H](OC(C)=O)[C@@H]1C [RIFAMPIN]

>  <study.system>
Mycobacterium tuberculosis

>  <result.units>
µM

>  <MIC90>
0.02

$$$$
>  <compound>
CO[C@H]1/C=C/O[C@@]2(C)Oc3c(C)c(O)c4c(O)c(c(CNCc5ccncc5)c(O)c4c3C2=O)NC(=O)/C(C)=C\C=C\[C@H](C)[C@H](O)[C@@H](C)[C@@H](O)[C@@H](C)[C@H](OC(C)=O)[C@@H]1C

>  <study.system>
Mycobacterium tuberculosis

>  <result.units>
µM

>  <MIC90>
0.31

$$$$
>  <compound>
CO[C@H]1/C=C/O[C@@]2(C)Oc3c(C)c(O)c4c(O)c(c(CNCCc5c[nH]c6ccccc56)c(O)c4c3C2=O)NC(=O)/C(C)=C\C=C\[C@H](C)[C@H](O)[C@@H](C)[C@@H](O)[C@@H](C)[C@H](OC(C)=O)[C@@H]1C

>  <study.system>
Mycobacterium tuberculosis

>  <result.units>
µM

>  <MIC90>
0.39

$$$$

# lookup: MIC90 of "CO[C@H]1/C=C/O[C@@]2(C)Oc3c(C)c(O)c4c(O)c(c(CNCc5ccc(S(C)(=O)=O)cc5)c(O)c4c3C2=O)NC(=O)/C(C)=C\C=C\[C@H](C)[C@H](O)[C@@H](C)[C@@H](O)[C@@H](C)[C@H](OC(C)=O)[C@@H]1C" 0.096

Subsequent entry: "CO[C@H]1/C=C/O[C@@]2(C)Oc3c(C)c(O)c4c(O)c(c(CNCc5cccs5)c(O)c4c3C2=O)NC(=O)/C(C)=C\C=C\[C@H](C)[C@H](O)[C@@H](C)[C@@H](O)[C@@H](C)[C@H](OC(C)=O)[C@@H]1C" 0.2
